System: HL-60(TB) leukemia
Assay: NCI-60 one-dose screen, 48 h
Conditions: 10 µM unless noted
The panel holds about 83,000 compounds, 20% with a hit somewhere; the sample as a whole holds those more often. Active and inactive are the calls of the source. How the source made its calls: active means growth percent below 10; inactive means the rest.
Outcomes: active, inactive

- molecule: "C/C(=N/OC(=O)N(C)C)c1cc(Cl)ccc1Cl"
  assigned-category: "inactive"
- molecule: "CC/C=C1/C(=O)C=C[C@@H]1C/C=C\\CCCC(=O)OC"
  assigned-category: "active"
- molecule: "NC(=O)c1c(NC(=O)c2ccc(C(F)(F)F)cc2Cl)sc2c1CCC(=O)C2"
  assigned-category: "active"
- molecule: "CO[C@H]1C[C@@H]2CC[C@@H](C)[C@@](O)(O2)C(=O)C(=O)N2CCCC[C@H]2C(=O)O[C@H]([C@H](C)C[C@@H]2CC[C@@H](O)[C@H](OC)C2)CC(=O)[C@H](C)/C=C(\\C)[C@@H](O)[C@@H](OC)C(=O)[C@H](C)C[C@H](C)\\C=C/C=C/C=C/1C"
  assigned-category: "inactive"
- molecule: "COc1cc(Br)c(-c2nc(-c3ccccc3)c(-c3ccccc3)n2Cc2ccccc2)cc1OC"
  assigned-category: "inactive"
- molecule: "COc1ccc(CCNC=O)cc1OC"
  assigned-category: "inactive"
- molecule: "Nn1c(CN2CCN(c3cc4c(cc3F)c(=O)c(C(=O)O)cn4C3CC3)CC2)n[nH]c1=S"
  assigned-category: "inactive"
- molecule: "COc1cc(C2CC(c3ccc(C)cc3)=NN2C=O)ccc1Oc1nc2c(c(=O)n(C)c(=O)n2C)n1C (centres undefined)"
  assigned-category: "inactive"
- molecule: "S=CN1CCCCC1"
  assigned-category: "inactive"
- molecule: "COc1ccc(C(=O)/C=C/c2ccc(N3CCCCC3)cc2)cc1OC"
  assigned-category: "inactive"
- molecule: "CCOC(=O)CO"
  assigned-category: "inactive"
- molecule: "Cc1ccc(-c2nc(N3CCNCC3)c3oc(-c4ccc(C)cc4)nc3n2)cc1"
  assigned-category: "active"
- molecule: "O=C1/C(=C\\c2cccnc2)SC(=S)N1CCc1ccc(O)cc1"
  assigned-category: "inactive"
- molecule: "CCOC(=O)c1c(C)nc2c(c1N)CC(=O)N2Cc1ccc(OC)cc1"
  assigned-category: "inactive"
- molecule: "C(=N\\Nc1nnc2n1N=C(c1ccccc1)CS2)/c1ccc(OCc2ccccc2)cc1"
  assigned-category: "inactive"
- molecule: "NCC(=O)NC(CC(=O)O)C(=O)O (centres undefined)"
  assigned-category: "inactive"
- molecule: "O=[N+]([O-])c1cc[n+]([O-])cc1"
  assigned-category: "inactive"
- molecule: "CCOC(=O)c1cnn2c(-c3ccc(Cl)cc3)nc(NCc3ccccc3)nc12"
  assigned-category: "inactive"
- molecule: "N#CCC1=NC(c2cccs2)=Nc2ccccc2S1"
  assigned-category: "inactive"
- molecule: "C#Cc1cccc(Nc2ncnc3cc(OCCOC)c(OCCOC)cc23)c1"
  assigned-category: "inactive"
- molecule: "N#Cc1c(N)n2c(nc1=Nc1ccc([N+](=O)[O-])cc1)sc1cc(Cl)ccc12"
  assigned-category: "inactive"
- molecule: "Cc1c(CC(=O)OCCO)cc(-c2ccc(Cl)cc2)n1-c1ccccc1"
  assigned-category: "inactive"
- molecule: "CCc1cc(Cl)c(OC)c(C(=O)NCC2CCCN2CC)c1O (centres undefined)"
  assigned-category: "inactive"
- molecule: "CN1CCN(Cc2ccc(NC(=O)c3[nH]ncc3Nc3cc(OC4CCCC4)ncn3)cc2)CC1"
  assigned-category: "active"
- molecule: "O=C(Nc1ccncc1)C(=O)c1cn(S(=O)(=O)c2cccc(F)c2)c2ccccc12"
  assigned-category: "active"
- molecule: "Cn1cc(C(=O)NCCC(=N)N)cc1NC(=O)CN=C(N)N"
  assigned-category: "inactive"
- molecule: "O=C(Nc1ccc(N2CCNCC2)cn1)c1[nH]ncc1Nc1ncnc2sccc12"
  assigned-category: "inactive"
- molecule: "N#CC1=C(N)Oc2c(ccc3ccccc23)C1c1cccs1 (centres undefined)"
  assigned-category: "active"
- molecule: "Cc1nn(-c2ccccc2)c(Oc2ccccc2)c1/C=N/NC(=O)Cn1c(=O)sc2ccccc21"
  assigned-category: "active"
- molecule: "CCOC(=O)c1cc(C(=O)c2cc(OC)cc(OC)c2)n2ccccc12"
  assigned-category: "active"
- molecule: "O=C(CN1C(=O)NC(c2ccccc2)(c2ccccc2)C1=O)c1ccc(N2CCCC2)cc1"
  assigned-category: "inactive"
- molecule: "c1ccc2[nH]c(-c3cc(-c4ccc5c(c4)OCO5)n[nH]3)nc2c1"
  assigned-category: "inactive"
- molecule: "Cc1ccc(OC(=O)c2ccccc2)cc1"
  assigned-category: "inactive"
- molecule: "Cc1cc(C)nc(SC2=C(Nc3cc(Cl)ccc3O)C(=O)N(Cc3ccccc3)C2=O)n1"
  assigned-category: "inactive"
